Below, each entry is listed with its recorded Synergy Score.
- Tested on: panel of breast cancer cell lines
- experiment_description: Compound A with targeted agents and chemotherapies, 72-hour in vitro proliferation assays
- Type: cell-based
- setup_conditions: AU565 cell line; compound A × partner; 72-hour proliferation
Structures can show the parent of a compound that is named as a salt.
Please reply with the number alone, leaving off any unit.

// known answers, use as guide
[
  {
    "compound": "O=C(c1cc(Cc2n[nH]c(=O)c3ccccc23)ccc1F)N1CCN(C(=O)C2CC2)CC1",
    "Synergy Score": 2.27
  },
  {
    "compound": "Nc1ccn([C@@H]2O[C@H](CO)[C@@H](O)C2(F)F)c(=O)n1 [Gemcitabine Hydrochloride]",
    "Synergy Score": 9.40
  },
  {
    "compound": "Cn1ncnc1[C@H]1c2n[nH]c(=O)c3cc(F)cc(c23)N[C@@H]1c1ccc(F)cc1",
    "Synergy Score": 8.12
  },
  {
    "compound": "CO[C@H]1C[C@@H]2CC[C@@H](C)[C@@](O)(O2)C(=O)C(=O)N2CCCC[C@H]2C(=O)O[C@H]([C@H](C)C[C@@H]2CC[C@@H](OCCO)[C@H](OC)C2)CC(=O)[C@H](C)/C=C(\\C)[C@@H](O)[C@@H](OC)C(=O)[C@H](C)C[C@H](C)/C=C/C=C/C=C/1C",
    "Synergy Score": 3.02
  },
  {
    "compound": "CN(C)C(=O)c1cc2cnc(Nc3ccc(N4CCNCC4)cn3)nc2n1C1CCCC1",
    "Synergy Score": 1.58
  }
]

Q. State, in one line, measured Synergy Score of N.N.O=C([O-])C1(C(=O)[O-])CCC1.[Pt+2]
A. 3.68

Q. In one line, give reported Synergy Score of the entry CC(=O)c1c(C)c2cnc(Nc3ccc(N4CCNCC4)cn3)nc2n(C2CCCC2)c1=O .
A. 1.50
